# experimental-target: T1, mIL1RAcP-Fc (murine, UniProt Q61730 21-359)
# T1 construct: also called P013_04; P013-04
# T1 sequence (looked up): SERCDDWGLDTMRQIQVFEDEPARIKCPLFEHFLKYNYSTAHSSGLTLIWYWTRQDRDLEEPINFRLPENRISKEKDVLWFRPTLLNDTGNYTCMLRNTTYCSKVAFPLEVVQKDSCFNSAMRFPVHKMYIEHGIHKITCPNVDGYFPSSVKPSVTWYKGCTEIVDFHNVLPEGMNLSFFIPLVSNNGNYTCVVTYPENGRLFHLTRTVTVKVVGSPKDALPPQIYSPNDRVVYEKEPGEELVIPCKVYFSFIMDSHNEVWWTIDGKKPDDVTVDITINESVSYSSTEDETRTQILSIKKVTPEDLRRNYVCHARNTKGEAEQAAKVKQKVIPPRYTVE
# measurement-protocol: ELISA, primary supernatant, coated mu-IL-1RAcP-Fc
readout: mu-IL1RaP ELISA (OD)
Quick reminder: number only, in OD, skip the unit.

Check out these entries, answers already filled in.
[
  {
    "binder": "P013.S.02.B.H04 (antibody, V domains shown, rabbit monoclonal antibody; also called P013.A.00029.F11) VH: QSVEESGGRLVKPDETLTLTCTVSGIDLSSYAMGWVRQAPGKGLEYIGIISSSGRTYYANWAKGRFTISKASSTTVDLKITSPTTEDTATYFCARLITVDYYIYDYFNLWGQGTLVTVSS VL: AYDMTQTPASVEAAVGGTVTIKCQASQSISSYLSWYQQKPGQPPKLLIYGASTLASGVPSRFKGSGSGTEYTLTISGVESDDAATYYCQQGYSYNNVDNTFGGGTEVVVK",
    "unit-tag": "OD",
    "mu-IL1RaP ELISA (OD)": 1.7
  },
  {
    "binder": "P013.S.01.B.A03 (antibody, V domains shown, rabbit monoclonal antibody; also called P013.A.00088.A07) VH: QEQLEESGGDLVQPEGSLTVTCTASGFSFSFGYYMCWVRQAPGKGLEWIACIYGDSSDTLYANWAKGRFTVSKTSSTTVTLQMTSLTAADTATYFCARYPGGSYYNLWGPGTRVTVSS VL: ALVMTQTPASVEAAVGGTVTIKCQASQTISINLAWYQQKPGQRPKLLIYYASTLASGVPSRFSGSGSGTEFTLTISGVQSDDAATYYCQQGYTEDNIDNTFGGGTEVVVK",
    "unit-tag": "OD",
    "mu-IL1RaP ELISA (OD)": 0
  },
  {
    "binder": "P013.S.01.B.B04 (antibody, V domains shown, rabbit monoclonal antibody; also called P013.A.00086.E02) VH: QSVEESGGRLVTPGTPLTLTCTVSGIDLDNYAMGWVRQAPGKGLEYIGVISSDGFFYDASWAKGRFTISKASSTTVDLKMTGLTPEDTATYFCARDRGTSTGSLDLWGQGTLVTVSS VL: ALVMTQTPASVSEPVGGTVTIKCQASENIGNGLAWYQQKPGQPPNLLIYGASTLASGVPSRFSGSGYGTEFTLTVSDLESGDAATYYCQCTYWNPDYIGGAFGGGTEVVVT",
    "unit-tag": "OD",
    "mu-IL1RaP ELISA (OD)": 0.5
  },
  {
    "binder": "P013.S.02.B.G02 (antibody, V domains shown, rabbit monoclonal antibody; also called P013.A.00014.C07) VH: QSLEESGGDLVKPGASLTLTCTASGFSLSSGGMTWVRQAPGKGLEWIGYINTGSGRTYYASWAKGRFIISKTSSTTVSLQMTSLTAADTATYFCAGGLPSDLWGPGTLVTVSS VL: DIVMTQTPSSVEAAVGGTVTIKCQASQSINSRLAWYQQKPGQPPKLLIYDASTLASGVSSRFSGSGTEFTLTISDLESADGATYYCLSHYLTSSSSYGNAFGGGTEVVVK",
    "unit-tag": "OD",
    "mu-IL1RaP ELISA (OD)": 3.4
  }
]

Asked: Quick check: mu-IL1RaP ELISA (OD) of P013.S.01.B.F04 (antibody, V domains shown, rabbit monoclonal antibody; also called P013.A.00133.A12) VH: LEQSGGGAEGGLVKPGGSLELCCKASGFSLSTSYWRCWVRQAPGKGLEWIGCIYAGSSDATYYANWVNGRFTLSRDIDQSTGCLQLNSLTAADTAMYYCASGVGFGYFNLWGQGTLVTVSS VL: ALVMTQTPSPVSAAVGGTVTINCQASEDIYSNLAWFQQKPGQPPKLLIYDASTLASGVPSRFSGSGSGTEFTLTISGLQSDDAATYYCLGVYTHISADNAFGGGTEVVVK ?
Given back: 0.3
